Values were extracted from paper PMC8989888.

# STUDY TARGET: SARS-CoV-2 3CL protease (Severe acute respiratory syndrome coronavirus 2, UniProt P0DTD1)
# Format: biochemical
# Parameters: unit not given here
# ASSAY CONDITIONS: Conc 10 µM; average response of dose-response curve
MEASURED ENDPOINT: Avg
Returns: the value as a bare number; no unit string appended.

For orientation, consider the following solved cases.
>>> reported_value("O=C(CCl)N1CCOC(c2ccc(F)cc2)C1 (stereo not drawn) [Z1562122812]")
31.1
>>> reported_value("NS(=O)(=O)c1ccc(S)nc1 [Z235344787]")
5.7

Turning now to a further molecule:
For the molecule Nc1cccnc1S [Z1741977862] , the measured Avg on SARS-CoV-2 3CL protease (Severe acute respiratory syndrome coronavirus 2, UniProt P0DTD1) was 21.4

* * *

# STUDY TARGET: SARS-CoV-2 3CL protease (Severe acute respiratory syndrome coronavirus 2, UniProt P0DTD1)
# Assay type: biochemical
# ASSAY CONDITIONS: 100 µM compound
# Inhibition at 100 µM values compiled below
Kindly provide the numeric value in % only, without the unit symbol.

Examples with answers:
>>> reported_value("O=C(NCC(CO)c1ccccc1)c1cccnc1S (stereo not drawn)")
96
>>> reported_value("Cn1cc(CNC(=O)c2cccnc2S)c(C(F)(F)F)n1")
100
>>> reported_value("Cc1cc(C(=O)CCl)c(C)n1-c1ccccn1")
91

Briefly, Inhibition at 100 µM measured for `Cc1cc(C(=O)CCl)c(C)n1-c1ncn[nH]1` : 100

So for `O=C(CCl)c1ccc(N2CCCC2=O)cc1` , the logged Inhibition at 100 µM turned out to be 87

Per the records, this molecule ( `O=C(NCCc1ccc(F)cc1)n1ccnc1` ) has Inhibition at 100 µM equal to 96

* * *

# STUDY TARGET: SARS-CoV-2 3CL protease (Severe acute respiratory syndrome coronavirus 2)
# Type: biochemical
# ASSAY CONDITIONS: 10 µM compound
MEASURED ENDPOINT: Inhibition at 10 µM
Put your answer as a value accompanied by its unit after it.

Illustrative cases are given below, each with its answer.
>>> reported_value("Cc1nc(CCNC(=O)c2cccnc2S)sc1C")
"10%"
>>> reported_value("O=C(NCC(CO)c1ccccc1)c1cccnc1S (stereo not drawn)")
"2%"
>>> reported_value("O=C(CCl)N1CCN(Cc2ccsc2)CC1")
"15%"
>>> reported_value("CCC(=O)N1CCC(NC(=O)c2cccnc2S)C1 (stereo not drawn)")
"24%"
>>> reported_value("O=C(CCl)N1CCN(c2ccccc2[N+](=O)[O-])CC1")
"20%"
>>> reported_value("Cc1cc(C(=O)CCl)c(C)n1-c1nccs1")
"64%"
>>> reported_value("CN1C(=O)CCc2cc(C(=O)CCl)ccc21")
"6%"
>>> reported_value("Cc1cc(C(=O)CCl)c(C)n1-c1ccccn1")
"36%"
>>> reported_value("O=C(CCl)c1ccc(N2CCCC2=O)cc1")
"47%"
>>> reported_value("NC(=O)c1csc(C(=O)CCl)c1")
"16%"

Per the record, O=C(NCC1(O)CCc2ccccc21)c1cccnc1S (stereo not drawn) has Inhibition at 10 µM of 55%

Query O=C(NCC1CCCCC1O)c1cccnc1S (stereo not drawn) yields Inhibition at 10 µM of 0%
